- Tested System: DGKα (Homo sapiens (Human))
- Sequence (P23743 whole entry): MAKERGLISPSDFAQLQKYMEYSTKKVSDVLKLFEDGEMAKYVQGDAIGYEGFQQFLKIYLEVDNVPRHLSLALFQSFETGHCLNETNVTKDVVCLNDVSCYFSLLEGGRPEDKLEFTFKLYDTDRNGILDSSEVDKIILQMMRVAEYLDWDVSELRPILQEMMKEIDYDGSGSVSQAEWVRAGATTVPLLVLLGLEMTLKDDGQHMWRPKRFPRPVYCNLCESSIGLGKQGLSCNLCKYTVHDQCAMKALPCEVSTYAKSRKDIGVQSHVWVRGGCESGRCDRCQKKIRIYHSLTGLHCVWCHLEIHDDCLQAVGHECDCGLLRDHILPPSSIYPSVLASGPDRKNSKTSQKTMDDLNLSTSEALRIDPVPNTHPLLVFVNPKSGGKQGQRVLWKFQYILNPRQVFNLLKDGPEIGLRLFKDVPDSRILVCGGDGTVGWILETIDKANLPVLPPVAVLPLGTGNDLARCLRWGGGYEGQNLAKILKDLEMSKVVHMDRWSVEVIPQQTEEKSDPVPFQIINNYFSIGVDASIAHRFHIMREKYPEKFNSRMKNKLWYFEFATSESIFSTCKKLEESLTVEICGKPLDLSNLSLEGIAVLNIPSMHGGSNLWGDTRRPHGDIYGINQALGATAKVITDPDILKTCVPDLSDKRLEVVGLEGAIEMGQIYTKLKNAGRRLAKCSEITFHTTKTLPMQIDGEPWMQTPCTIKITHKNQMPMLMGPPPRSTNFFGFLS
- Assay Explanation: Biochemical DGK IC50 assay, DGKα ADP-Glo assay
- Condition Set: 7.5 nM enzyme, 140 μM ATP, 80 μM DAG
Readout Type: IC50 (µM)

Known IC50 results, listed for orientation:
# Compound, IC50 [µM]
measured = [
    ("CC[C@H]1CN(C(C)c2ccc(C(F)F)nc2)[C@H](CC)CN1c1cc(=O)n(C)c2cn(CC#N)nc12 (single isomer, unassigned) [Compound A351a]", 0.274),
    ("CC(c1cc2ccccc2cn1)N1C[C@H](C)N(c2cc(=O)n(C)c3cn(CC#N)nc23)C[C@H]1C (stereo partly shown) [Compound A305]", 1.49),
]

[I] CC[C@H]1CN(C(C)c2cnc3c(n2)CCCC3)[C@H](CC)CN1c1cc(=O)n(C)c2cn(CC#N)nc12 (single isomer, unassigned) [Compound A357b]
[II] CC[C@H]1CN(C(C)c2ccc(CN3CCOCC3)cc2)[C@H](CC)CN1c1cc(=O)n(C)c2cn(CC#N)nc12 (single isomer, unassigned) [Compound A383a]
[III] CC[C@H]1CN(C(C)c2ccc(F)cc2C)[C@H](CC)CN1c1cc(=O)n(C)c2cn(CC#N)nc12 (stereo partly shown) [Compound A84]
Could you please sort these 3 entries by IC50 from high to low? Submit the labels in the order that the ranking request calls for.
III, I, II

[P] CC[C@H]1CN(C(C)c2ccc3nccnc3c2)[C@H](CC)CN1c1cc(=O)n(C)c2cn(CC#N)nc12 (single isomer, unassigned) [Compound A28a]
[Q] CC#CCn1cc2c(n1)c(N1C[C@@H](C)N([C@@H](C)c3ccc4nccnc4c3)C[C@@H]1C)cc(=O)n2C [Compound A22b]
For this pair, P and Q , which shows a numerically higher IC50? Answer format: the label of the selected item.
P
(P: 0.49 µM, Q: 0.19 µM)

* * *

pIC50: −log10 of the molar value.
// pIC50 collected for UniProt P23743

# Compound, pIC50
rows = [
    ("CC[C@H]1CN(C(C)c2c(C)cnn2CC)[C@H](CC)CN1c1cc(=O)n(C)c2cn(CC#N)nc12 (single isomer, unassigned) [Compound A227a]", "< 5.00"),
]

Entry CC[C@H]1CN(C(C)c2ccc(C)cc2C(F)(F)F)[C@H](CC)CN1c1cc(=O)n(C)c2cn(CC#N)nc12 (single isomer, unassigned) [Compound A115b] , system UniProt P23743: what pIC50 was measured?
3.98

Entry CC[C@H]1CN(C(C)c2ccc(F)cc2C(F)(F)F)[C@H](CC)CN1c1cc(=O)n(C)c2c[nH]nc12 (single isomer, unassigned) [Compound A275a] , system UniProt P23743: what pIC50 was measured?
< 5.00

Entry Cc1cnc2ccc(N(C)C3CC(C)N(c4cc(=O)n(C)c5cn(CC#N)nc45)CC3C)cc2n1 (stereo not drawn) , system UniProt P23743: what pIC50 was measured?
< 3.82

Entry CC[C@H]1CN(C(C)c2c(C)cnn2CC)[C@H](CC)CN1c1cc(=O)n(C)c2cn(CC#N)nc12 (single isomer, unassigned) [Compound A227b] , system UniProt P23743: what pIC50 was measured?
< 5.00

Entry CC[C@@H]1CN(c2c(Br)c(=O)n(C)c3cn(CC#N)nc23)CCN1C(C)c1ccc2nccnc2c1 (single isomer, unassigned) [Compound A179b] , system UniProt P23743: what pIC50 was measured?
< 5.00

* * *

- Tested System: DGKζ (Homo sapiens (Human))
- Sequence (Q13574 other isoform, or with tags, fused parts or gaps): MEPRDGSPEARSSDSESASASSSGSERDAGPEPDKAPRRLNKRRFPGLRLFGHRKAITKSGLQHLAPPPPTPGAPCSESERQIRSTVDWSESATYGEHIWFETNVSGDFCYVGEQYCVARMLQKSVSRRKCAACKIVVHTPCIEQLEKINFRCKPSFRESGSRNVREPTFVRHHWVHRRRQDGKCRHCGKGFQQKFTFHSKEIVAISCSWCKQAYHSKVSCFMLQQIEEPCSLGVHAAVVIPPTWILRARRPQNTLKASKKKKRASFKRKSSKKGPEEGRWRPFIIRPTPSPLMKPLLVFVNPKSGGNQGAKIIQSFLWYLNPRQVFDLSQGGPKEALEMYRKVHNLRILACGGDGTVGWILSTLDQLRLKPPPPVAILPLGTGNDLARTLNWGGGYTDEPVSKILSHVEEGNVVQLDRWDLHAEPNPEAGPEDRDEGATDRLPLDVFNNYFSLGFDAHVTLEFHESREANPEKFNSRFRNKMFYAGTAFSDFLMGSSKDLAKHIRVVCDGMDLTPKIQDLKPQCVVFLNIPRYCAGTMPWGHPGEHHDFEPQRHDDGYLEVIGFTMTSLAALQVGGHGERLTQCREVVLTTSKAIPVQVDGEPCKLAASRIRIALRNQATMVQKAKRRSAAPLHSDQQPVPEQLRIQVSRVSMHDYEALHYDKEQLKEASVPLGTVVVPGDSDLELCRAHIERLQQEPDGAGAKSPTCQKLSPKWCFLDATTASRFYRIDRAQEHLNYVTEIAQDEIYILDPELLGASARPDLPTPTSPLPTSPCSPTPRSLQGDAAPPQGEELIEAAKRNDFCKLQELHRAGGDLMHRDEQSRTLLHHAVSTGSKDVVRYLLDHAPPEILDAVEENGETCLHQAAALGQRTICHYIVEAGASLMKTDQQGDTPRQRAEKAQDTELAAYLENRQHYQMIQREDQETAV
- Assay Explanation: Biochemical DGK IC50 assay, DGKζ ADP-Glo assay
- Condition Set: 0.5 nM enzyme, 140 μM ATP, 80 μM DAG; read-out: DGKζ ADP-Glo assay IC50
Readout Type: IC50 (nM)

Known IC50 results, listed for orientation:
# Compound, Readout Type, Value Measured
data = [
    ("CC[C@H]1CN(C(C)c2cc(Cl)nn2CC)[C@H](CC)CN1c1cc(=O)n(C)c2cn(CC#N)nc12 (stereo partly shown)", "IC50", 1130),
    ("CC[C@H]1CN(C(C(=O)NCCOC)c2ccc(C(F)(F)F)cc2)[C@H](CC)CN1c1cc(=O)n(C)c2cn(CC#N)nc12 (stereo partly shown)", "IC50", 189),
]

[1] CC[C@@H]1CN(c2cc(=O)n(C)c3cn(CC#N)nc23)[C@@H](CC)CN1Cc1ccc(OC(F)(F)F)cc1
[2] CC[C@H]1CN(C(C)c2cc3ccccc3cn2)[C@H](CC)CN1c1cc(=O)n(C)c2cn(CC#N)nc12 (stereo partly shown)
Between the entries labeled 1 and 2 , whose measured IC50 is lower? Answer format: the label of the selected item.
2
(2: 2.8 nM, 1: 600 nM)

* * *

pIC50: −log10 of the molar value.
// pIC50 collected for DGKα (Homo sapiens (Human))
Readout Type: pIC50

# Compound, pIC50
measured = [
    ("CC[C@H]1CN(C(C)c2ccc(F)nc2)[C@H](CC)CN1c1cc(=O)n(C)c2cn(CC#N)nc12 (single isomer, unassigned) [Compound A353b]", 6.10),
]

[I] CC[C@@H]1CN(c2cc(=O)n(C)c3cn(CC#N)nc23)[C@@H](C)CN1C(C)c1ccc(C(F)(F)F)cc1F (single isomer, unassigned) [Compound A202b]
[II] CC[C@H]1CN(C(C)c2ccc(C)cc2F)[C@H](CC)CN1c1cc(=O)n(C)c2cn(CC#N)nc12 (stereo partly drawn) [Compound A340]
[III] Cc1cnc2ccc([C@H](C)N3C[C@H](C)N(c4c(F)c(=O)n(C)c5cn(CC#N)nc45)C[C@H]3C)cc2n1 [Compound A317]
Task for the reader: rank each entry by its pIC50, from the minimum upward. Submit the labels in the order that the ranking request calls for.
III, I, II
(III: 5.06, I: 5.89, II: 6.31)

[P] CC[C@H]1CN(C(C)c2ccc3nccnc3c2)[C@H](C)CN1c1cc(=O)n(C)c2cn(CC#N)nc12 (single isomer, unassigned) [Compound A98a]
[Q] CC[C@H]1CN(C(C)c2ccc(CN3CCC(F)(F)CC3)nc2)[C@H](CC)CN1c1cc(=O)n(C)c2cn(CC#N)nc12 (single isomer, unassigned) [Compound A381a]
For this pair, P and Q , which shows a numerically higher pIC50? Answer format: the label of the selected item.
Q

[a] CC[C@H]1CN(C(C)c2nn(CC)cc2C#N)[C@H](CC)CN1c1cc(=O)n(C)c2cn(CC#N)nc12 (stereo partly drawn) [Compound A240]
[b] CC[C@H]1CN(C(C)c2nc3ccccc3s2)[C@H](CC)CN1c1cc(=O)n(C)c2cn(CC#N)nc12 (stereo partly drawn) [Compound A52]
Between the entries labeled a and b , whose measured pIC50 is lower? Answer format: the label of the selected item.
a

* * *

- Tested System: DGKα (Homo sapiens (Human))
Readout Type: IC50 (µM)

[1] COc1cnc2ccc(C(C)N3C[C@H](C)N(c4cc(=O)n(C)c5cn(CC#N)nc45)C[C@H]3C)cc2n1 (stereo partly drawn)
[2] CC[C@H]1CN(C(C)c2ccc(F)cc2C(F)F)[C@H](CC)CN1c1cc(=O)n(C)c2cn(CC#N)nc12 (single isomer, unassigned) [Compound A172b]
[3] CC[C@H]1CN(C(C)c2cnc3c(n2)CCCC3)[C@H](CC)CN1c1cc(=O)n(C)c2cn(CC#N)nc12 (single isomer, unassigned) [Compound A357a]
Ranking field: IC50; order: falling. Submit the labels in the order that the ranking request calls for.
1, 2, 3
(1: 40.1 µM, 2: 20.4 µM, 3: 2.45 µM)

* * *

// IC50 collected for UniProtKB P23743
Readout Type: IC50 (µM)

Known IC50 results, listed for orientation:
# Compound, Unit Descriptor, IC50
records = [
    ("Cc1cnc2ccc([C@H](C)N3C[C@H](C)N(c4cc(=O)n(C)c5cn(CC=C(F)F)nc45)C[C@H]3C)cc2n1 [Compound A303]", "µM", 102),
    ("CC[C@H]1CN(C(C)c2cccc(CO)c2)[C@H](CC)CN1c1cc(=O)n(C)c2cn(CC#N)nc12 (single isomer, unassigned) [Compound A121a]", "µM", 1.3),
    ("CC[C@H]1CN(C(C)c2ccc3nc(O)cnc3c2)[C@H](CC)CN1c1cc(=O)n(C)c2cn(CC#N)nc12 (single isomer, unassigned) [Compound A282a]", "µM", 0.182),
    ("CC(c1ccc2nccnc2c1)N1C[C@H](C)N(c2cc(=O)n(C)c3cn(C4(C#N)CC4)nc23)C[C@H]1C (stereo partly drawn) [Compound A16]", "µM", 9.6),
    ("CC[C@H]1CN(C(C)c2nc3cccnc3n2CC)[C@H](CC)CN1c1cc(=O)n(C)c2cn(CC#N)nc12 (single isomer, unassigned) [Compound A185b]", "µM", 3.99),
]

[I] CC(c1ccc2ncc(C(F)(F)F)nc2c1)N1C[C@H](C)N(c2cc(=O)n(C)c3cn(CC#N)nc23)C[C@H]1C (stereo partly drawn) [Compound A314]
[II] CC[C@@H]1CN(c2cc(=O)n(C)c3cn(CC)nc23)[C@@H](C)CN1C(C)c1ccc2nccnc2c1 (single isomer, unassigned) [Compound A221b]
Between the entries labeled I and II , whose measured IC50 is lower? Answer format: the label of the selected item.
II
